test system: ACHN; assay: NCI tumour cell line growth inhibition, 48 h
Calls of active or inactive are those of the source. Cut-off read from the data, not from the text of the source: active = GI50 up to about 1.1 µM and inactive = higher.
// one of label 1 = active, label 0 = inactive, no free text

Worked examples follow.
>>> label_class("Cc1cc(C)nc(NS(=O)(=O)c2ccc(NC(=O)c3cccc4c(N)c5ccccc5nc34)cc2)n1")
"label 0"
>>> label_class("Cc1occc1C(=S)Nc1ccc(Cl)c(/C=N/OC(C)(C)C)c1")
"label 0"
>>> label_class("CCOC(=O)/C(C(=O)Nc1cccc(Cl)c1)=C(/N)N1CCOCC1")
"label 0"
>>> label_class("c1ccc([B-]23Oc4ccccc4[NH+]2c2ccccc2O3)cc1 (configuration not stated)")
"label 0"
>>> label_class("CCN1c2ccccc2-n2c(C)nnc2-c2c(-c3ccccc3)n[nH]c21")
"label 0"

Enquiry: Outcome? CC(=O)CC(=O)CCCC(=O)Nc1ccc(Cl)cc1Cl
Return: label 0

Enquiry: # repeat for C/C(Nc1ccc(Cl)cc1)=C1/CCOC1=O
Return: label 0

Enquiry: # repeat for CCc1c(-c2ccc(OC)cc2)oc(OC)c(C)c1=O
Return: label 0

Enquiry: # repeat for N=C(N)SCc1cn2ccccc2n1
Return: label 0

Enquiry: # repeat for COC(=O)C1=C(c2ccc3c(c2)OCO3)O[C@H](c2cc(OC)c(OC)c(OC)c2)[C@H]1COC(C)=O
Return: label 0

Enquiry: # repeat for Cc1ccc2c(c1C)-c1c(ccc(C)c1C)C(=O)C2=O
Return: label 1

====

tested on: 786-0; experiment: NCI tumour cell line growth inhibition, 48 h
Calls of active or inactive are those of the source. Rule as the data show it: active = GI50 up to about 1.1 µM and inactive = higher.
// one of 1.0 (active), 0.0 (inactive), no free text

Worked examples follow.
>>> label_class("Cc1cc(Cl)ccc1NC(=O)CC1SC(N)=NC1=O (stereo unspecified)")
0.0
>>> label_class("Cc1ccc([N+]2=NC(c3ccc([N+](=O)[O-])cc3)=NN(c3ccccc3)C2)cc1")
0.0
>>> label_class("COC(=O)C1C(=O)CC2CCCCC21 (stereo unspecified)")
0.0
>>> label_class("COC1C(CO)OC(n2c3c(Cl)cccc3c3c4c(c5c6cccc(Cl)c6[nH]c5c32)C(=O)NC4=O)C(O)C1O (stereo unspecified)")
1.0
>>> label_class("c1ccc([B-]23Oc4ccccc4[NH+]2c2ccccc2O3)cc1 (stereo unspecified)")
0.0
>>> label_class("CC(C)(C)c1cc(-c2c3nc(c(-c4cc(C(C)(C)C)cc(C(C)(C)C)c4)c4ccc([nH]4)c(-c4cc(C(C)(C)C)cc(C(C)(C)C)c4)c4nc(c(-c5cc(C(C)(C)C)cc(C(C)(C)C)c5)c5ccc2[nH]5)C=C4)C=C3)cc(C(C)(C)C)c1")
0.0
>>> label_class("O=C1c2ccccc2C(=O)c2sc(Nc3ccc(Cl)c(Cl)c3)nc21")
0.0
>>> label_class("CCC1(c2ccncc2)CCC(=O)NC1=O (stereo unspecified) [ROGLETIMIDE]")
0.0
>>> label_class("CN1CC(=O)N(C)c2[nH]cnc2C1=O")
0.0
>>> label_class("CC(C)C1OC(=O)C(Cc2ccccc2)N(C)C(=O)C(C(C)C)OC(=O)C(Cc2ccccc2)N(C)C(=O)C(C(C)C)OC(=O)C(Cc2ccccc2)N(C)C1=O (stereo unspecified)")
0.0

Enquiry: Outcome? O=C1OC2(c3ccccc3Oc3ccccc32)c2ccccc21
Return: 0.0

Enquiry: # repeat for C[C@]12[C@@H]3CC[C@H]1[C@@H](OC(=O)Nc1cc([N+](=O)[O-])cc([N+](=O)[O-])c1)C(=O)N2CC3
Return: 0.0

Enquiry: # repeat for N#C/C(N)=C(C#N)/N=C/NCCO
Return: 0.0

====

tested on: OVCAR-4; test: NCI tumour cell line growth inhibition, 48 h
Calls of active or inactive are those of the source. Cut-off read from the data, not from the text of the source: active = GI50 up to about 1.1 µM and inactive = higher. Peptide text beside a SMILES is read from it. * marks the point of attachment. Boc = CC(C)(C)OC(=O)*; OtBu = CC(C)(C)O*
Assay endpoint: GI50

>>> data_value("CC(C)(C)OC(=O)CC(NC(=O)OC(C)(C)C)C(=O)NC(Cc1ccccc1)C(N)=O (stereo not given) (Boc-Asp(OtBu)-Phe-NH2; configuration not given here)")
"> 100 µM (inactive)"
>>> data_value("CCOC(=O)N1N=C(/C(C)=N/OC)C(C)[S+]1[O-] (stereo not given)")
"> 100 µM (inactive)"
>>> data_value("COC(=O)C1C(=O)CC2CCCCC21 (stereo not given)")
"> 100 µM (inactive)"

Enquiry: Entry ON=C1CCC(c2ccccc2)CC1 (stereo not given) has what GI50?
Return: > 100 µM (inactive)

Enquiry: # repeat for C[n+]1c(-c2ccc(/C=N\Nc3ccnc(N/N=C/c4ccc(-c5cn6ccsc6[n+]5C)cc4)n3)cc2)cn2ccsc21
Return: 58.1 µM (inactive)

Enquiry: # repeat for O=C1Cc2ccccc2CCc2ccsc21
Return: > 100 µM (inactive)

Enquiry: # repeat for O=C1/C(=C/c2ccc(Br)cc2)CCC/C1=C\c1ccc(Br)cc1
Return: 10.1 µM (inactive)

Enquiry: # repeat for C=CCN1C(=O)/C(=C/c2ccc(C)cc2)N=C1SC1OC(COC(C)=O)C(OC(C)=O)C(OC(C)=O)C1OC(C)=O (stereo not given)
Return: 7.83 µM (inactive)

Enquiry: # repeat for Cc1cc(N(CCOS(C)(=O)=O)CCOS(C)(=O)=O)ccc1/C=N/c1ccc(-c2csc(-c3ccc(Br)cc3)n2)cc1
Return: 26.5 µM (inactive)

Enquiry: # repeat for O=C1c2cccc3c(Cl)ccc(c23)C(=O)N1CCCN1CCN(CCCN2C(=O)c3cccc4c(Cl)ccc(c34)C2=O)CC1
Return: > 100 µM (inactive)

Enquiry: # repeat for COc1cc2cc(C(=O)N3CC(COS(C)(=O)=O)c4c3cc([N+](=O)[O-])c3ccccc43)[nH]c2c(OC)c1OC (stereo not given)
Return: > 31.6 µM (inactive)

Enquiry: # repeat for O=C(/C=C/c1ccccc1O)c1cccc2ccccc12
Return: 56.8 µM (inactive)

Enquiry: # repeat for CC1(C)CN(c2ccccc2)C(=O)C1OC(=O)[C@@]1(C)C[C@@H]2C=C[C@H]1C2 (stereo not given in full)
Return: 18.1 µM (inactive)

Enquiry: # repeat for O=C1OC2(c3ccccc3Oc3ccccc32)c2ccccc21
Return: > 100 µM (inactive)

Enquiry: # repeat for CN(C)c1ccc(/C=C(\NC(=O)c2ccccc2)c2nn(C)c(=O)o2)cc1
Return: 28.9 µM (inactive)

Enquiry: # repeat for O=[N+]([O-])c1ccc2c(c1)c1nn2CCCCOc2nn(c3ccc([N+](=O)[O-])cc23)CCCCO1
Return: > 100 µM (inactive)

====

Parameter: GI50. Scope: all listed entries.
test system: LOX IMVI; assay: NCI tumour cell line growth inhibition, 48 h
Activity calls are given as the source filed them. No stated cut-off is given here; in the data, active = GI50 up to about 1.1 µM and inactive = higher.

Example compounds with recorded GI50:
>>> data_value("O=C1O/C(=C\\c2ccc(O)c(Br)c2)C(c2ccc(O)c(Cl)c2)=C1Br")
"44.6 µM (inactive)"
>>> data_value("Nc1nc(Cl)c(N)c(NCC2(CO)CC2)n1")
"> 100 µM (inactive)"
>>> data_value("Cc1ccc(SCC(=O)C2=C(O)CCCC2=O)cc1")
"> 100 µM (inactive)"
>>> data_value("Cc1ccc(Nc2nc3ccccc3c(=O)n2N)cc1")
"> 100 µM (inactive)"
>>> data_value("Cc1cc(C(=C2C=CC(=[N+](C)C)C=C2)c2ccc([N+](C)(C)C)cc2)ccc1N(C)C")
"4.79 µM (inactive)"

Enquiry: Entry O=C(Nc1ccccc1C(=O)NCCCO)/C(=C/c1ccccc1O)NC(=O)c1ccccc1 has what GI50?
Return: 21.5 µM (inactive)

====

Parameter: GI50. Scope: all listed entries.
tested on: RPMI-8226; test: NCI tumour cell line growth inhibition, 48 h
Activity calls are given as the source filed them. No stated cut-off is given here; in the data, active = GI50 up to about 1.1 µM and inactive = higher.

Enquiry: # get_value(readout= GI50, system= RPMI-8226) for CCOC(=O)CCN1C(=O)c2c(NC(=O)C(=O)O)cccc2S1(=O)=O
Return: > 100 µM (inactive)

Enquiry: # repeat for NCCCCCCNCc1cccc2ccccc12
Return: > 100 µM (inactive)

Enquiry: # repeat for C=CCOCCCCC(C(C)=O)C(=O)OC (stereo unspecified)
Return: > 100 µM (inactive)

====

Parameter: GI50. Scope: all listed entries.
test system: SN12C; assay: NCI tumour cell line growth inhibition, 48 h
Active and inactive are the calls of the source. No stated cut-off is given here; in the data, active = GI50 up to about 1.1 µM and inactive = higher.

>>> data_value("N#CC(C#N)=Cc1ccc(C=C2SC3=C(SCCS3)S2)s1")
"66.2 µM (inactive)"

Enquiry: Entry CCOC(=O)C1=C(C)N(c2ccccc2)C2=C(C(=O)N(c3ccccc3)C2c2ccccc2)C1c1ccccc1 (centres undefined) has what GI50?
Return: > 100 µM (inactive)

Enquiry: # repeat for COc1ccccc1/C=C1\CCC(Cc2ccccc2)(CN(C)C)C1=O (centres undefined)
Return: 3.75 µM (inactive)

====

system: SF-295; assay: NCI tumour cell line growth inhibition, 48 h
Calls of active or inactive are those of the source. No stated cut-off is given here; in the data, active = GI50 up to about 1.1 µM and inactive = higher.
// one of active, inactive, no free text

Worked examples follow.
>>> label_class("CC1=C2C(O)C(C(C)C(=O)N(C)C)CCC2(C)C=CC1=O (stereo not drawn)")
"inactive"
>>> label_class("C=C1CC23CCC4C(C)(C(=O)O)CCCC4(C)C2CCC1C3 (stereo not drawn)")
"inactive"
>>> label_class("CCP(=O)(CC)C(Cl)(Cl)C(O)C(Cl)(Cl)Cl (stereo not drawn)")
"inactive"
>>> label_class("CC(=O)OC12c3ccccc3-c3ccccc3C1C(C(=O)O)C2C(=O)O (stereo not drawn)")
"inactive"
>>> label_class("CN(C)P(=O)(Oc1occc1C(O)Cc1ccccc1)N(C)C (stereo not drawn)")
"inactive"

Enquiry: Outcome? N#C/C(N)=C(C#N)/N=C/NCCO
Return: inactive

Enquiry: # repeat for COC(=O)c1ccc(O)c2nc3c(C=O)c(O)cc(O)c3nc12 [LOMOFUNGIN]
Return: active

Enquiry: # repeat for COc1cc([C@@H]2OC(=O)C3C2C(=O)O[C@H]3c2cc(OC)c(OC)c(OC)c2)cc(OC)c1OC (stereo partly drawn)
Return: inactive

Enquiry: # repeat for COc1ccc2cc1Oc1ccc(cc1)CC1c3cc(c(OC)cc3CCN1C)Oc1c3c(cc4c1C(C2)N(C)CC4)OCO3 (stereo not drawn)
Return: inactive

Enquiry: # repeat for CC(CN(C)C)/C(=N\Nc1ccccc1)c1ccccc1 (stereo not drawn)
Return: active
